Let's look at some molecules and their measured Percent Mortality.
System: tobacco budworm (Heliothis virescens [Fabricius])
Assay: surface-treated diet test, insecticidal activity against tobacco budworm
Type: in vivo
Settings: 0.25 millimoles of candidate insecticide on the surface of the diet; second instar larvae; five-day exposure; compared to total number of insects infested

MOLECULE | MEASUREMENT UNITS | Percent Mortality
OC1(C(c2ccc(C(F)(F)F)cc2)c2cc(Cl)cc(Cl)c2)CCN(Cc2ccc(Oc3ncccn3)cc2)CC1 (stereo not drawn) [Compound 3] | % | 100
OC1(C(c2ccc3c(c2)OC(F)(F)O3)c2ccc3c(c2)OC(F)(F)O3)CCN(Cc2ccc(Oc3ccccn3)cc2)CC1 [Compound 446] | % | 100
CC(=O)NCC1(C(c2ccc(C(F)(F)F)cc2)c2ccc(C(F)(F)F)cc2)CC[N+]([O-])(Cc2ccc(Oc3ncccn3)cc2)CC1 (stereo not drawn) [Compound 466] | % | 17
OC1(C(c2ccccc2)c2ccc(OC(F)(F)F)cc2)CCN(Cc2ccc(Oc3ccccn3)cc2)CC1 (racemic) [Compound 288] | % | 100
[O-][N+]1(Cc2ccc(C=NOCC(F)(F)F)cc2)CCC(O)(C(c2ccc(OC(F)(F)F)cc2)c2ccc(OC(F)(F)F)cc2)CC1 (stereo not drawn) [Compound 378] | % | 100
Cc1cccc(Oc2ccc(C[N+]3([O-])CCC(O)(C(c4ccc(OC(F)(F)F)cc4)c4ccc(OC(F)(F)F)cc4)CC3)cc2)n1 (stereo not drawn) [Compound 354] | % | 100

---

System: tobacco budworm (Heliothis virescens [Fabricius])
Experiment: surface-treated diet test, insecticidal activity against tobacco budworm
Format: in vivo
Conditions: 0.25 millimoles of candidate insecticide on the surface of the diet; second instar larvae; five-day exposure; compared to total number of insects infested

COMPOUND | Percent Mortality
Cc1cc(Cl)ccc1C(c1ccc(OC(F)(F)F)cc1)C1(O)CC[N+]([O-])(Cc2ccc(Oc3ccccn3)cc2)CC1 (stereo not shown) | 100%
OC1(C(c2ccc(OC(F)(F)F)cc2)c2ccc(OC(F)(F)F)cc2)CCN(Cc2ccc(OCC3CC3)cc2)CC1 | 100%
NC(=O)CON=Cc1ccc(C[N+]2(O)CCC(O)(C(c3ccc(OC(F)(F)F)cc3)c3ccc(OC(F)(F)F)cc3)CC2)cc1.O=C(O)CC(O)(CC(=O)O)C(=O)[O-] (stereo not shown) | 100%
OC1(C(c2ccc(C(F)(F)F)cc2)c2ccc(C(F)(F)F)cc2)CCN(Cc2ccc(Oc3ncccn3)cc2)CC1 | 100%
CCON=Cc1ccc(C[N+]2([O-])CCC(O)(C(c3ccc(OC(F)(F)F)cc3)c3ccc(OC(F)(F)F)cc3)CC2)cc1 (stereo not shown) | 100%
[O-][N+]1(Cc2ccc(OCC3CC3)cc2)CCC(O)(C(c2ccc(OC(F)(F)F)cc2)c2ccc(OC(F)(F)F)cc2)CC1 (stereo not shown) | 100%
OCC1(C(c2ccc(C(F)(F)F)cc2)c2ccc(C(F)(F)F)cc2)CCN(Cc2ccc(Oc3ncccn3)cc2)CC1 | 0%
OC1(C(c2ccc(OC(F)(F)F)cc2)c2ccc(C(F)(F)F)cc2)CCN(Cc2ccc(Oc3ncccn3)cc2)CC1 (stereo not shown) | 100%
OC1(C(c2ccc(C(F)(F)F)cc2)c2ccc(C(F)(F)F)cc2)CCN(Cc2ccc(OCc3ccccc3)cc2)CC1 | 67%
O=C(Nc1ccc(Cl)cc1)Oc1ccc(CN2CCC(O)(C(c3ccc(OC(F)(F)F)cc3)c3ccc(OC(F)(F)F)cc3)CC2)cc1 | 33%
